system tested: HASPIN (Homo sapiens)
Sequence (Q8TF76 whole entry): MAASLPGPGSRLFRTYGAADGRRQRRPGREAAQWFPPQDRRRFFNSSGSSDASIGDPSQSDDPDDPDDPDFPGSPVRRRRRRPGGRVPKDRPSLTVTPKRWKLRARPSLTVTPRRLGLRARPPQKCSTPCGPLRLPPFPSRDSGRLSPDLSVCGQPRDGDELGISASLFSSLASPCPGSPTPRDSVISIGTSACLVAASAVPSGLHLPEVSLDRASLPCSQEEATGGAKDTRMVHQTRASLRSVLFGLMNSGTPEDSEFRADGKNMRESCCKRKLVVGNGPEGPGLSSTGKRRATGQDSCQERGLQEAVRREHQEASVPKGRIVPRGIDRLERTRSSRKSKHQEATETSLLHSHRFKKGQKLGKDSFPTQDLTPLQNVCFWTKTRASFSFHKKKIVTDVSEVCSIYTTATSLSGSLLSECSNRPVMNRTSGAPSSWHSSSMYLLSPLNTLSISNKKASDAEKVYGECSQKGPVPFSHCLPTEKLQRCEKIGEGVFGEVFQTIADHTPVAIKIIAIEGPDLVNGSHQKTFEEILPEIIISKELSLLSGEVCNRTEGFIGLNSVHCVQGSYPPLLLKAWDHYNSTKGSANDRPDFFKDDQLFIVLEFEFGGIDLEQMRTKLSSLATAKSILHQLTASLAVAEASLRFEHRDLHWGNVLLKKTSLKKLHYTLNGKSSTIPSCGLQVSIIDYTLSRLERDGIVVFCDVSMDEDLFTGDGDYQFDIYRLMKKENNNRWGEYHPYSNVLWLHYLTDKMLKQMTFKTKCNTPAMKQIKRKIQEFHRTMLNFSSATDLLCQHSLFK
protocol text: KINOMEscan competition binding
reported conditions: read-out: %Inh HASPIN
Form field: inhibition at 1 µM (one value per entry).
Use % as the unit, but write only the number.

Example entries and their recorded answers appear below.
CS(=O)(=O)Cc1ccc(Nc2nccc(-c3c(-c4cccc(NC(=O)C5CCCCC5)c4)nn4ncccc34)n2)cc1 [UNC10225159A] ... 17
Cn1cc(-c2cnc(N)c3c(-c4ccc5c(c4)CCN5C(=O)Cc4ccccc4)csc23)cn1 [UNC10225012A] ... 0
Cc1ccc(NC(=O)Nc2cccc(C(F)(F)F)c2)cc1 [UNC10225187A] ... 12
COc1cccc(OC)c1C(=O)Nc1cccc(-c2nn3ccccc3c2-c2ccnc(Nc3cccc(F)c3)n2)c1 [UNC10225310A] ... 0

Now examine the next entry.
Please look up its inhibition at 1 µM: O=c1cc(N2CCOCC2)nc2n(Cc3cccc(Cl)c3Cl)c(C3CC3)nn12 [UNC10225469A]
0

====

system tested: MAK (Homo sapiens, UniProt P20794)
Sequence (P20794 whole entry): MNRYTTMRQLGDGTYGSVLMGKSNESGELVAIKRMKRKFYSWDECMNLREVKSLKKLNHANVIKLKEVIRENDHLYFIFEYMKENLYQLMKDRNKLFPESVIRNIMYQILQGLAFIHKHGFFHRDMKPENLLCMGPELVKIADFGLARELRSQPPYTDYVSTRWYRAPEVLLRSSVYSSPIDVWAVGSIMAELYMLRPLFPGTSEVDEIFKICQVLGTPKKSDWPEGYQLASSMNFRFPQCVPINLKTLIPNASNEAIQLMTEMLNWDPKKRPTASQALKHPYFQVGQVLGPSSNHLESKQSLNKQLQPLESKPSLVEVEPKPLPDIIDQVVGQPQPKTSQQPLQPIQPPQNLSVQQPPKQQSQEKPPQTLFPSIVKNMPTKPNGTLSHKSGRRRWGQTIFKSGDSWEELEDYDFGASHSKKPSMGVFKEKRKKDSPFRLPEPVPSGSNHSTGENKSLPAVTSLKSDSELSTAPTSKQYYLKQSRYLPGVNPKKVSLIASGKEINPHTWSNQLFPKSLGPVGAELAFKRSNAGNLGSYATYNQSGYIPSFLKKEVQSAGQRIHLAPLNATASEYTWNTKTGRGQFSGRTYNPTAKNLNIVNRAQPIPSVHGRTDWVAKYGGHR
protocol text: KINOMEscan competition binding
reported conditions: read-out: %Inh MAK
readout name: inhibition at 1 µM (%)
Your answer should be a plain number; it is taken to be in %.

The following compounds have reported results that may help.
COc1cccc(OC)c1C(=O)Nc1cccc(-c2nn3ccccc3c2-c2ccnc(Nc3cccc(F)c3)n2)c1 [UNC10225310A] ... 14
CS(=O)(=O)Cc1ccc(Nc2nccc(-c3c(-c4cccc(NC(=O)C5CCCCC5)c4)nn4ncccc34)n2)cc1 [UNC10225159A] ... 0
Cc1ccc(NC(=O)Nc2cccc(C(F)(F)F)c2)cc1 [UNC10225187A] ... 0
Cn1cc(-c2cnc(N)c3c(-c4ccc5c(c4)CCN5C(=O)Cc4ccccc4)csc23)cn1 [UNC10225012A] ... 0

Kindly review the next compound as well.
Record request: inhibition at 1 µM value, item O=c1cc(N2CCOCC2)nc2n(Cc3cccc(Cl)c3Cl)c(C3CC3)nn12 [UNC10225469A]
0

====

Property: inhibition at 1 µM; scope: individual molecules
system tested: DCAMKL1 (Homo sapiens, UniProt O15075)
Sequence (O15075 1-740): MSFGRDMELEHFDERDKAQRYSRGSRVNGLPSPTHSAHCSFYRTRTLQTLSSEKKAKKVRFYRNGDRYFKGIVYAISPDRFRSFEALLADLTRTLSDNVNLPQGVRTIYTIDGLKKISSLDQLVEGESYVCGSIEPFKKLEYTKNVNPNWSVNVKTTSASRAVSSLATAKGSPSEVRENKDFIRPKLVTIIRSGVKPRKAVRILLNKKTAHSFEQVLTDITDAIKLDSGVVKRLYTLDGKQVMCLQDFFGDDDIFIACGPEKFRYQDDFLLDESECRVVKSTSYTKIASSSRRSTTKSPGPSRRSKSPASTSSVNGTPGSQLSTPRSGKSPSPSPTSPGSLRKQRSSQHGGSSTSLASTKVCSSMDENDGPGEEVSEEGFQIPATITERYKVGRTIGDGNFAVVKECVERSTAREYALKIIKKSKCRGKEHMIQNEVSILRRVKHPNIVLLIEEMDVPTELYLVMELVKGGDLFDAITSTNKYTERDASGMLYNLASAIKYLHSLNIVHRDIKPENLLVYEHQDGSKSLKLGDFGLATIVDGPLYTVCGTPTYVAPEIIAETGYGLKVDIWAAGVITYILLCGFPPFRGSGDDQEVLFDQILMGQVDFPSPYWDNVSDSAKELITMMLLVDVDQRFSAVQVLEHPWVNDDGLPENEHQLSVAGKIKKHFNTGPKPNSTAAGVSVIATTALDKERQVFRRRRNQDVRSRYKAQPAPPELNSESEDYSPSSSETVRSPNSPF
protocol text: KINOMEscan competition binding
reported conditions: read-out: %Inh DCAMKL1
Record the value in %, omitting the unit from your answer.

Some molecules with recorded inhibition at 1 µM:
Cn1cc(-c2cnc(N)c3c(-c4ccc5c(c4)CCN5C(=O)Cc4ccccc4)csc23)cn1 [UNC10225012A] ... 0
Cc1ccc(NC(=O)Nc2cccc(C(F)(F)F)c2)cc1 [UNC10225187A] ... 0
CS(=O)(=O)Cc1ccc(Nc2nccc(-c3c(-c4cccc(NC(=O)C5CCCCC5)c4)nn4ncccc34)n2)cc1 [UNC10225159A] ... 0
COc1cccc(OC)c1C(=O)Nc1cccc(-c2nn3ccccc3c2-c2ccnc(Nc3cccc(F)c3)n2)c1 [UNC10225310A] ... 16

We now examine a further molecule.
Param item = O=c1cc(N2CCOCC2)nc2n(Cc3cccc(Cl)c3Cl)c(C3CC3)nn12 [UNC10225469A] ; retrieve measured inhibition at 1 µM.
0
